Tested on: Brain
method-notes: Drug uptake in Harlan Sprague-Dawley rat brain at 3 ug/kg, iv after 10 mins by LC-MS/MS analysis
Format: ADME, organism-based
experimental-context: in vivo, 0.003 mg/kg
quantity-measured: SUV (%)
Numbers only, in %.

Some solved cases for reference:
compound	tested-target	quantity-unit	SUV
CNC(=O)[C@@H](Cc1ccccc1F)CN1CCC2(CC1)OCCc1cc(F)sc12	Brain	%	124
CC(C)N(C)C(=O)[C@@H](Cc1ccccc1F)CN1CCC2(CC1)OCCc1cc(F)sc12	Brain	%	143

For each entry beneath this line, provide reported SUV.
1. CN(C)C(=O)C(Cc1ccccc1Cl)CN1CCC2(CC1)OCCc1cc(F)sc12 (single isomer, unassigned; (+))
2. CN(C)C(=O)[C@@H](Cc1ccccc1F)CN1CCC2(CC1)OCCc1cc(F)sc12.O=C(O)C(O)C(O)C(=O)O
3. CNC(=O)C(Cc1ccccc1Cl)CN1CCC2(CC1)OCCc1cc(F)sc12 (single isomer, unassigned; (-))

output:
1: 208; 2: 154; 3: 154
